test: Plasma protein binding assay (RED), mouse; assay type: in vitro ADME; details: mouse, plasma

# compound, fraction unbound at 4 h, 10 µM
measured = [
    ("O=C1CCC(N2Cc3cc(Nc4noc5ccccc45)ccc3C2=O)C(=O)N1 (stereo not shown) [SJ3149]", 0.038),
]

====

test system: 115 human cancer cell lines; experiment: Oncolines panel cell viability assay (ATPlite, 72 h); assay type: cell-based; conditions: Homo sapiens, RS4-11, RS4-11, Adult B acute lymphoblastic leukemia, TP53 Wild-type; read-out: IC50
pIC50: −log10 of the molar value.
readout-label: pIC50

# compound, observed-measurement
measured = [
    ("O=C1CCC(N2Cc3cc(Nc4noc5ccccc45)ccc3C2=O)C(=O)N1 (stereo not shown)", 8.68),
]

====

system: A388; experiment: cells; design: Oncolines panel cell viability, ATPlite 1Step luminescence, duplicate 9-point dose response, IC50; settings: 72 h viability; read-out: SJ3149
pIC50: −log10 of the molar value.

# compound, test-system, pIC50
rows = [
    ("O=C1CCC(N2Cc3cc(Nc4noc5ccccc45)ccc3C2=O)C(=O)N1 (stereo not shown)", "A388", "< 4.50"),
]

====

system: 102 cell lines; assay: Oncolines viability of 120 reference anti-cancer agents; format: cell-based, human; conditions: LNCaP FGC; Prostate carcinoma
pIC50: −log10 of the molar value.

# compound, pIC50
records = [
    ("COc1ccc(C2=N[C@@H](c3ccc(Cl)cc3)[C@@H](c3ccc(Cl)cc3)N2C(=O)N2CCNC(=O)C2)c(OC(C)C)c1 [Nutlin-3a]", 4.96),
]

====

system: PL-21; experiment: cells; design: Oncolines panel cell viability, ATPlite 1Step luminescence, duplicate 9-point dose response, IC50; details: PL-21; 72 h viability; read-out: SJ3149

# molecule, IC50
data = [
    ("O=C1CCC(N2Cc3cc(Nc4noc5ccccc45)ccc3C2=O)C(=O)N1 (stereo not shown)", "> 31.6 µM"),
]

====

tested on: 102 cell lines; assay: Oncolines viability of 120 reference anti-cancer agents; assay type: cell-based, human; conditions: PC-3, Prostate carcinoma, TP53 Mutant

# smiles-code, IC50
records = [
    ("COc1ccc(C2=N[C@@H](c3ccc(Cl)cc3)[C@@H](c3ccc(Cl)cc3)N2C(=O)N2CCNC(=O)C2)c(OC(C)C)c1", "> 31.6 µM"),
]

====

experiment: Liver microsomes stability assay, human; format: in vitro ADME; settings: both sexes, human, liver microsomes, pH 7.4; read-out: Microsome stability t1/2

# compound, half-life at 10 µM
measured = [
    ("O=C1CCC(N2Cc3cc(Nc4noc5ccccc45)ccc3C2=O)C(=O)N1 (stereo not shown)", "> 10 h"),
]

====

Test system: PC-3
Assay: cells
Parameters: Oncolines panel cell viability, ATPlite 1Step luminescence, duplicate 9-point dose response, IC50
Settings: Homo sapiens, PC-3; 72 h viability; read-out: SJ3149
Description: Cell viability assays were performed as previously described. In brief, cells were seeded in a 384-well plate at an optimized density. The starting cell number was determined after 24 h incubation by adding ATPlite 1Step (Perkin Elmer, Groningen, the Netherlands) to each well and recording luminescence on an Envision multimode reader (Perkin Elmer, Waltham, MA). […]
readout-label: IC50

# compound, test-system, readout-label, observed-measurement
rows = [
    ("O=C1CCC(N2Cc3cc(Nc4noc5ccccc45)ccc3C2=O)C(=O)N1 (stereo not shown)", "PC-3", "IC50", "> 31.6 µM"),
]

====

test system: ES-2; assay: cells; design: Oncolines panel cell viability, ATPlite 1Step luminescence, duplicate 9-point dose response, IC50; details: Homo sapiens, ES-2; 72 h viability; read-out: SJ3149
pIC50: −log10 of the molar value.
readout-label: pIC50

# molecule, observed-measurement
rows = [
    ("O=C1CCC(N2Cc3cc(Nc4noc5ccccc45)ccc3C2=O)C(=O)N1 (stereo not shown)", "< 4.50"),
]

====

test system: BxPC-3; assay: cells; parameters: Oncolines panel cell viability, ATPlite 1Step luminescence, duplicate 9-point dose response, IC50; details: Homo sapiens, BXPC-3; 72 h viability; read-out: SJ3149
pIC50: −log10 of the molar value.

# compound, test-system, pIC50
data = [
    ("O=C1CCC(N2Cc3cc(Nc4noc5ccccc45)ccc3C2=O)C(=O)N1 (stereo not shown) [SJ3149]", "BxPC-3", "< 4.50"),
]

====

tested on: 102 cell lines; assay: Oncolines viability of 120 reference anti-cancer agents; type: cell-based, human; details: SW900, Squamous cell lung carcinoma, TP53 Mutant
pIC50: −log10 of the molar value.
readout-label: pIC50

# compound, readout-label, observed-measurement
measured = [
    ("COc1ccc(C2=N[C@@H](c3ccc(Cl)cc3)[C@@H](c3ccc(Cl)cc3)N2C(=O)N2CCNC(=O)C2)c(OC(C)C)c1 [Nutlin-3a]", "pIC50", "< 4.50"),
]

====

tested on: panel of AML and ALL cell lines; assay: CTG viability in a panel of AML and ALL cell lines (Fig. 3a); type: cell-based, human; conditions: Homo sapiens, MHHCALL4, MHHCALL-4 cells; replicate values
pIC50: −log10 of the molar value.
readout-label: pIC50

# compound, readout-label, observed-measurement
data = [
    ("O=C1CCC(N2Cc3cc(Nc4noc5ccccc45)ccc3C2=O)C(=O)N1 (stereo not shown)", "pIC50", 8.52),
]

====

test system: SW948; test: cells; parameters: Oncolines panel cell viability, ATPlite 1Step luminescence, duplicate 9-point dose response, IC50; details: Homo sapiens, SW948; 72 h viability; read-out: SJ3149
readout-label: IC50

# molecule, readout-label, observed-measurement
records = [
    ("O=C1CCC(N2Cc3cc(Nc4noc5ccccc45)ccc3C2=O)C(=O)N1 (stereo not shown)", "IC50", "> 31.6 µM"),
]

====

assay: Aqueous solubility assay; format: physicochemical; conditions: DPBS buffer

# compound, solubility at 18 h / µM
rows = [
    ("O=C1CCC(N2Cc3cc(Nc4noc5ccccc45)ccc3C2=O)C(=O)N1 (stereo not shown)", 36),
]

====

assay: Pharmacokinetics in female CD1 mice; type: in vivo, mouse; conditions: female, CD1, plasma; PO 50 mg/kg, mouse; read-out: C0/Cmax (molar)

# compound, unit-string, Cmax
measured = [
    ("O=C1CCC(N2Cc3cc(Nc4noc5ccccc45)ccc3C2=O)C(=O)N1 (stereo not shown) [SJ3149]", "µM", 12.6),
]

====

test system: 102 cell lines; test: Oncolines viability of 120 reference anti-cancer agents; format: cell-based, human; settings: T98G, Glioblastoma, TP53 Mutant

# smiles-code, IC50
records = [
    ("COc1ccc(C2=N[C@@H](c3ccc(Cl)cc3)[C@@H](c3ccc(Cl)cc3)N2C(=O)N2CCNC(=O)C2)c(OC(C)C)c1", "> 31.6 µM"),
]

====

system: U-87 MG; assay: cells; design: Oncolines panel cell viability, ATPlite 1Step luminescence, duplicate 9-point dose response, IC50; settings: Homo sapiens, U-87 MG; 72 h viability; read-out: SJ3149
pIC50: −log10 of the molar value.
readout-label: pIC50

# compound, observed-measurement
measured = [
    ("O=C1CCC(N2Cc3cc(Nc4noc5ccccc45)ccc3C2=O)C(=O)N1 (stereo not shown)", "< 4.50"),
]

====

tested on: 786-O; assay: cells; parameters: Oncolines panel cell viability, ATPlite 1Step luminescence, duplicate 9-point dose response, IC50; settings: Homo sapiens, 786-0; 72 h viability; read-out: SJ3149
pIC50: −log10 of the molar value.
readout-label: pIC50

# molecule, observed-measurement
rows = [
    ("O=C1CCC(N2Cc3cc(Nc4noc5ccccc45)ccc3C2=O)C(=O)N1 (stereo not shown)", "< 4.50"),
]

====

system: 102 cell lines; assay: Oncolines viability of 120 reference anti-cancer agents; type: cell-based, human; conditions: cell line COLO 205, Colon adenocarcinoma, TP53 Mutant

# smiles-code, IC50
rows = [
    ("COc1ccc(C2=N[C@@H](c3ccc(Cl)cc3)[C@@H](c3ccc(Cl)cc3)N2C(=O)N2CCNC(=O)C2)c(OC(C)C)c1", "> 31.6 µM"),
]

====

tested on: SW872; experiment: cells; set-up: Oncolines panel cell viability, ATPlite 1Step luminescence, duplicate 9-point dose response, IC50; conditions: Homo sapiens, SW872; 72 h viability; read-out: SJ3149
pIC50: −log10 of the molar value.

# molecule, test-system, pIC50
data = [
    ("O=C1CCC(N2Cc3cc(Nc4noc5ccccc45)ccc3C2=O)C(=O)N1 (stereo not shown)", "SW872", "< 4.50"),
]

====

system: 115 human cancer cell lines; assay: Oncolines panel cell viability assay (ATPlite, 72 h); format: cell-based; details: Homo sapiens, J82; Bladder carcinoma; read-out: IC50
pIC50: −log10 of the molar value.

# molecule, pIC50
data = [
    ("O=C1CCC(N2Cc3cc(Nc4noc5ccccc45)ccc3C2=O)C(=O)N1 (stereo not shown) [SJ3149]", "< 4.50"),
]

The origin of these recorded values is paper PMC10791743.
